Provenance of the data: patent US20050101595A1

# experimental-target: human CDK4 and genetically truncated (1-264) cyclin D3 (Homo sapiens)
# experiment-summary: Inhibition of CDK4/Cyclin D Retinoblastoma Kinase Activity
# particulars: apparent Ki, CDK4/truncated cyclin D3, Rb fragment substrate, 25 μM ATP
Counter-ions that a name gives are not always drawn.
measured-endpoint: Ki (nM)
Dear colleague, please return just the value in nM, with no unit written.

[
  {
    "compound": "Nc1nc(NC2CCN(S(=O)(=O)CCSC3CCCC3)CC2)sc1C(=O)c1c(F)cccc1F [Example K38, Trifluoroacetic Acid Salt]",
    "experimental-target": "human CDK4 and genetically truncated (1-264) cyclin D3 (Homo sapiens)",
    "unit-descriptor": "nM",
    "Ki": 6.4
  },
  {
    "compound": "CN(C)CCN(C)Cc1ccc(S(=O)(=O)N2CCC(Nc3nc(N)c(C(=O)c4c(F)cccc4F)s3)CC2)cc1 [Example J9, Hydrochloride Salt]",
    "experimental-target": "human CDK4 and genetically truncated (1-264) cyclin D3 (Homo sapiens)",
    "unit-descriptor": "nM",
    "Ki": 0.85
  }
]

Let's switch to this compound now.
// query Ki value for entry Nc1nc(NC2CCN(S(=O)(=O)CCNCCN3CCCC3)CC2)sc1C(=O)c1c(F)cccc1F [Example K28, Trifluoroacetic Acid Salt]
2.8

---

Measured pKi accompanies every entry in the list below.
# experimental-target: human CDK4 and genetically truncated (1-264) cyclin D3 (Homo sapiens, UniProt P11802)
# Sequence (P11802 whole entry, the tested form may be a part): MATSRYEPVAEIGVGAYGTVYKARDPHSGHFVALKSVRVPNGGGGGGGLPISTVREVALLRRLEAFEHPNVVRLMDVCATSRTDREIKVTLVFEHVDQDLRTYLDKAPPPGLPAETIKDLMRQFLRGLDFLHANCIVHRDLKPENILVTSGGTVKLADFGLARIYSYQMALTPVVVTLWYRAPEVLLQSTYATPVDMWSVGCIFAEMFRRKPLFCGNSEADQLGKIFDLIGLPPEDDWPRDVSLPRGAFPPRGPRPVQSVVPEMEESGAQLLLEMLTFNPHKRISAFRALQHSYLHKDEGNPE
# Sequence (P30281 1-264 partner): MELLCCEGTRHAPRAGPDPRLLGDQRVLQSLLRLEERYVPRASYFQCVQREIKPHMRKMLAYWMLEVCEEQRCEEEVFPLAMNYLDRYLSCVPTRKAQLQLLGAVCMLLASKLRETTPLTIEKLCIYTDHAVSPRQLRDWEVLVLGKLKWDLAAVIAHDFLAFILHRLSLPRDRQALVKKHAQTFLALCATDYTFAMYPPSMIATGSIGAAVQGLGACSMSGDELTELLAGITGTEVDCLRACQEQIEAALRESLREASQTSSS
# experiment-summary: Inhibition of CDK4/Cyclin D Retinoblastoma Kinase Activity
# particulars: apparent Ki, CDK4/truncated cyclin D3, Rb fragment substrate, 25 μM ATP
Where a name gives a salt, the structure may show the parent alone.
pKi here is simply -log10 of the concentration when that concentration is written in mol/L.

[
  {
    "compound": "CN(CCS(=O)(=O)N1CCC(Nc2nc(N)c(C(=O)c3c(F)cccc3F)s2)CC1)c1ccccc1 [Example K37, Trifluoroacetic Acid Salt]",
    "pKi": 8.49
  }
]

// query pKi value for entry CN(C)c1ccc(NC(=O)N2CCC(Nc3nc(N)c(C(=O)c4c(F)cccc4F)s3)CC2)cc1 [Example B2]
6.96

// query pKi value for entry Nc1nc(NC2CCN(S(=O)(=O)CCNC3CCS(=O)(=O)C3)CC2)sc1C(=O)c1c(F)cccc1F (stereo not drawn) [Example K31, Trifluoroacetic Acid Salt]
8.37

// query pKi value for entry Nc1nc(NC2CCN(C(=S)Oc3ccccc3)CC2)sc1C(=O)c1c(F)cccc1F [Example C6]
8.10

// query pKi value for entry CN1CCN=C1c1ccc(S(=O)(=O)N2CCC(Nc3nc(N)c(C(=O)c4c(F)cccc4F)s3)CC2)cc1 [Example J1]
9.20

// query pKi value for entry CC[C@H](NCCS(=O)(=O)N1CCC(Nc2nc(N)c(C(=O)c3c(F)cccc3F)s2)CC1)c1ccccc1 [Example K42]
8.72

// query pKi value for entry N#Cc1ccc(S(=O)(=O)N2CCCC(Nc3nc(N)c(C(=O)c4c(F)cccc4F)s3)C2)cc1 (stereo not drawn) [Example F35]
6.47

// query pKi value for entry Nc1nc(NC2CCN(C(=O)c3sccc3Cl)CC2)sc1C(=O)c1c(F)cccc1F [Example C8]
7.39

// query pKi value for entry CC1(C)CN(c2ccc(S(=O)(=O)N3CCC(Nc4nc(N)c(C(=O)c5c(F)cccc5F)s4)CC3)cn2)C=N1 [Example G21]
9.17

// query pKi value for entry Nc1nc(NC2CCN(S(=O)(=O)c3ccc(N4CCN(C=O)CC4)nc3)CC2)sc1C(=O)c1c(F)cccc1F [Example G16, Trifluoroacetic Acid Salt]
9.20

// query pKi value for entry CN(C)CCCOc1ccc(S(=O)(=O)N2CCC(Nc3nc(N)c(C(=O)c4c(F)cccc4F)s3)CC2)cn1 [Example H15, Hydrochloride]
9.47

// query pKi value for entry Nc1nc(NC2CCN(S(=O)(=O)c3cccnc3)CC2)sc1C(=O)c1c(F)cccc1F [Example F23]
8.32

// query pKi value for entry COC(=O)c1sccc1S(=O)(=O)N1CCC(Nc2nc(N)c(C(=O)c3c(F)cccc3F)s2)CC1 [Example F10]
8.25

// query pKi value for entry C[C@@H](O)CN(C)c1ccc(S(=O)(=O)N2CCC(Nc3nc(N)c(C(=O)c4c(F)cccc4F)s3)CC2)cn1 [Example G17, Trifluoroacetic Acid Salt]
8.85
